Molecular target: monooxygenase component of styrene monooxygenase (StyA) (Pseudomonas sp)
Test: [Cp*Rh(bpy)(H2O)]2+ driven, StyA-catalyzed epoxidation / sulfoxidation
Type: biochemical
Conditions: substrate 2 mM, reaction time 15 min, 37 °C, 0.2 mM [Cp*Rh(bpy)(H2O)]2+, 1.47 μM StyA, 20 μM FAD; Positive = no standard substances available yet

# compound, Epoxides concentration [mM]
measured = [
    ("C1=Cc2ccccc2CC1 [1,2-Dihydronaphthalene]", 0.23),
    ("C=Cc1ccc(C)cc1 [4-Methyl-styrene]", 0.29),
    ("C/C=C/c1ccccc1 [Trans-β-Methylstyrene]", 0.28),
    ("C=Cc1cccc(Cl)c1 [3-Chloro-styrene]", 0.37),
    ("C1=Cc2ccccc2C1 [Indene]", 0.42),
]

---

Listed molecules paired with reported ee-value of the epoxides
Biological target: monooxygenase component of styrene monooxygenase (StyA) (Pseudomonas sp, UniProt O50214)
Sequence (O50214 whole entry): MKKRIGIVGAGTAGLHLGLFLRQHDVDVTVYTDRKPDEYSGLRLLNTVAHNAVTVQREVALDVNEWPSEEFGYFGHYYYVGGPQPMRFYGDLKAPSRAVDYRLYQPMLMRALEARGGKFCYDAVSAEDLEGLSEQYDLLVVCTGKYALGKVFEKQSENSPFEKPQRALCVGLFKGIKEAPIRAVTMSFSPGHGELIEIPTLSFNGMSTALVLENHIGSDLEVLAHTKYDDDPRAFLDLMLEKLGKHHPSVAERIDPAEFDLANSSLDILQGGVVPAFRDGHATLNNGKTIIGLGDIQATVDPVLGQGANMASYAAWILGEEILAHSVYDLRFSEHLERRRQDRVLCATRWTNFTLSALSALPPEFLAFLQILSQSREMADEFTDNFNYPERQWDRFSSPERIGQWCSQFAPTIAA
Experiment: [Cp*Rh(bpy)(H2O)]2+ driven, StyA-catalyzed epoxidation / sulfoxidation
Format: biochemical
Conditions: substrate 2 mM, reaction time 15 min, 37 °C, 0.2 mM [Cp*Rh(bpy)(H2O)]2+, 1.47 μM StyA

# molecule, ee-value of the epoxides [%]
data = [
    ("CSc1ccccc1", 23.3),
    ("C1=Cc2ccccc2C1", 97.9),
    ("C/C=C/c1ccccc1 [Trans-β-Methylstyrene]", 97.6),
    ("C1=Cc2ccccc2CC1 [1,2-Dihydronaphthalene]", 98.9),
]

---

Target: monooxygenase component of styrene monooxygenase (StyA) (Pseudomonas sp, UniProt O50214)
Test: [Cp*Rh(bpy)(H2O)]2+ driven, StyA-catalyzed epoxidation / sulfoxidation
Type: biochemical
Settings: substrate 2 mM, reaction time 15 min, 37 °C, 0.2 mM [Cp*Rh(bpy)(H2O)]2+, 1.47 μM StyA, 20 μM FAD; Positive = no standard substances available yet
quantity.measured: Epoxides concentration

# compound, quantity.measured, experimental.value
rows = [
    ("CSc1ccccc1", "Epoxides concentration", "0.33 (Methyl mM"),
    ("C=Cc1ccc(Br)cc1", "Epoxides concentration", "Positive^[c]"),
    ("CCSc1ccccc1 [Phenyl ethyl sulfide]", "Epoxides concentration", "Positive^[c]"),
    ("C=Cc1ccc(OC)cc1", "Epoxides concentration", "Positive^[c]"),
    ("C=Cc1ccc(F)cc1", "Epoxides concentration", "Positive^[c]"),
    ("C=Cc1ccc(Cl)cc1", "Epoxides concentration", "Positive^[c]"),
]
